Where a SMILES comes first, the peptide text is derived from it.
Threshold check on logP: at or above 2 gives Fulfilled, strictly below gives Not fulfilled.

| molecule | answer.label |
| --- | --- |
| CC(C)(O)C1CCC2(C)CCCC(O)(CO)C2C1 (stereo unspecified) | Not fulfilled |
| COc1ccc2c(c1)OCN(CCO[N+](=O)[O-])C2=O | Fulfilled |
| CSCC(NC(C)=O)C(N)=O (stereo unspecified) | Not fulfilled |
| [O-][n+]1ccc(-c2ccccc2)cc1 | Not fulfilled |
| O=Cc1ccc(Cl)cc1O | Fulfilled |

Does logP meet or surpass 2 for COc1cc(NS(C)(=O)=O)ccc1-c1cn2cccnc2n1 ?
Not fulfilled

Form field: logP at least 2? Entry: CSCCC(N)C(=O)NC(CC(C)C)C(=O)O (stereo not drawn) (H-Met-Leu-OH; configuration not given here)
Not fulfilled

Could you verify whether the entry O=c1nc(N=CN2CCCCC2)ccn1C1CC(O)C(CO)O1 (stereo unspecified) shows logP of no less than 2?
Not fulfilled

Say whether COC(=O)c1ccc(C(=O)OC)c(N)c1 shows logP of 2 or more.
Fulfilled

Check if logP >= 2 (inclusive). Item: O=[N+]([O-])c1ccc(CCBr)cc1
Fulfilled

====

Where a SMILES comes first, the peptide text is derived from it.
property: logP
Give bare numbers.

Before answering, review these 3 worked examples.
| compound | logP |
| --- | --- |
| Nc1nnc(-c2cccc(Cl)c2Cl)c(N)n1 | 2.57 |
| O=C(NP(=O)(N1CC1)N1CC1)c1ccccc1 | 0.81 |
| COC(=O)C(C)NP(=O)(OCC1C=CC(n2cc(C)c(=O)[nH]c2=O)O1)Oc1ccc(OC)cc1 (centres undefined) | 1.09 |

Hi! Can you tell me logP for each of these compounds?
1. CC(C)NC(=O)N1C(=O)N(C)CC1O (centres undefined)
2. CCOC(=O)C(C)(Cc1cccc2ccccc12)S(=O)(=O)c1ccc([N+](=O)[O-])cc1 (centres undefined)
3. COc1ccc(C2Cc3c(cccc3C(F)(F)F)N(CCN(C)C)C(=O)C2Cc2ccccc2)cc1 (centres undefined)
4. CNC(=S)NN=C(C)CSCC(C)=NNC(=S)NC
5. CCCCCCC(Nc1ccc([N+](=O)[O-])cc1[N+](=O)[O-])C(=O)O (centres undefined)
6. CCCCCCCCOC(=O)c1cccnc1
7. Clc1cccc(N2CCN(CCn3nc4ccccc4n3)CC2)c1

0.96
4.4
7.2
1.38
4.2
4.71
4.1

Quick request: logP for each listed item, please.
1. CC(C)SCc1cc(=O)c(O)co1
2. CCC(=O)Nc1ccc(OCC(O)CNC(C)C)cc1 (centres undefined)
3. COc1ccc(C(=O)N2CCN(c3ccc4c(c3)CCC(=O)N4)CC2)cc1OC

1. 1.17
2. 1.02
3. 1.04

Please give logP for each item listed below.
1. N=C(N)Nc1nc(-c2ccc(N)cc2)cs1
2. CCCCOc1cccc(NC(=O)OCCN2CCCCC2)c1
3. CC(C)CC(N)C(=O)N1CCCC1C(=O)O (stereo not drawn) (H-Leu-Pro-OH; configuration not given here)
4. COc1ccc(C2=NC(C(=O)O)CS2)c(O)c1 (centres undefined)
5. Nc1nnnn1-c1ccc([N+](=O)[O-])cc1
6. CCC(C)C(N)C(=O)N1CCCC1C(=O)NCC(=O)NC(C(=O)O)C(C)CC (centres undefined) (H-IPGI-OH; configuration not given here)
7. COc1cccc(NC(=O)OCCN2CCCCC2)c1
8. Brc1cc2ccc3cccc4ccc(c1)c2c34

1. 1.08
2. 5.04
3. -1.76
4. 1.5
5. 0.77
6. -1.69
7. 3.32
8. 5.8

====

Where a SMILES comes first, the peptide text is derived from it.
I'd appreciate it if you could supply logP values for the items below.
One number for each entry.

Please review the entries below; each comes with its answer.
| compound | logP |
| --- | --- |
| CC(C)NC(=NC#N)NS(=O)(=O)c1cnccc1Nc1ccc(Cl)cc1 | 2.37 |
| CCN(CC)CCNC(=O)c1c(C)cc(N)cc1C | 0.98 |

State recorded logP for all listed compounds.
1. Cc1cccc(Cc2cnc[nH]2)c1C
2. CC(C)(C)[N+]([O-])=Cc1ccc(C(=O)O)cc1
3. CCC(C)C(N)C(=O)NC(C(=O)NC(C(=O)NC(C(=O)O)C(C)C)C(C)C)C(C)CC (stereo not given) (H-IIVV-OH; configuration not given here)

1: 2.68; 2: 1.1; 3: -1.41

====

Please go through the items and note down their logP.
Give bare numbers.

Example compounds with recorded logP:
| compound | property | recorded.value |
| --- | --- | --- |
| COC(=O)C(C)NP(=O)(OCC1C=CC(n2cc(C)c(=O)[nH]c2=O)O1)Oc1ccc([N+](=O)[O-])cc1 (stereo unspecified) | logP | 0.9 |
| Cc1ccc(CO)c(C=NNC(=O)c2ccncc2)c1O | logP | 2.16 |
| O=C(Cc1ccccc1)OC1Cc2c(O)cc(O)cc2OC1c1ccc(O)c(O)c1 (stereo unspecified) | logP | 3.09 |
| COc1ccc(CCNCC(O)COc2ccc(-c3nc(C)c[nH]3)cc2Br)cc1OC (stereo unspecified) | logP | 3.8 |
| CC1CCC(NC(=O)N2C(=O)N(C)CC2O)CC1 (stereo unspecified) | logP | 2.41 |

For each of the compounds below, note its logP.
1. Cc1cc2c(ccc3c(C)c(C)c(=O)oc32)o1
2. Cc1c(O)c(=O)ccn1CCCO
3. CCNC(=S)NS(=O)(=O)c1cnccc1NC1CCCCCCC1
4. O=c1cc(CSc2nc3ccccc3s2)occ1O

1: 3.27; 2: -0.88; 3: 3.86; 4: 2.08

Go through the items and report each one's logP.
1. Nc1ccc(S(=O)(=O)Nc2cccc3[nH]ccc23)cc1
2. Cc1ccc(C(=O)OCCCn2ccc(=O)c(O)c2C)cn1

1.41
0.28

====

So I've got a bunch of compounds here, and I need their logP values.
Where a SMILES comes first, the peptide text is derived from it.
Give bare numbers.

| compound | logP |
| --- | --- |
| CCCCOCCCCCNC(=O)NC12CC3CC(CC(C3)C1)C2 | 5 |

Fill in logP for each of the 6 compounds listed.
1. COc1nc(N)nc(NC(C)(C)C)n1
2. CC(C)=CCNc1ncnc2c1ncn2[C@@H]1O[C@H](CO)[C@@H](O)[C@H]1O
3. CNC1=NS(=O)N=C1NCCSCc1ccc(CN(C)C)o1 (stereo unspecified)
4. COC(=O)c1c(Oc2nc(OC)cc(OC)n2)cccc1C(C)=NOCc1ccccc1
5. CCC(C)C(NC(=O)C1CCCN1)C(=O)O (stereo not drawn) (H-Pro-Ile-OH; configuration not given here)
6. O=C(O)CCCCON=C(c1cccc(C(F)(F)F)c1)c1cccnn1

1: 1.93; 2: 1.3; 3: 0.89; 4: 4.01; 5: -2.56; 6: 2.8

Respectfully, I request logP for each entry included below.
1. O=c1cc(CSC2CCCCC2)occ1O
2. Cc1cc(=O)[nH]nc1/C=C/c1ccc(-n2cnc3c2CCCC3)cc1
3. C#CCCCCl
4. COc1ccc(C2Cc3c(cccc3C(F)(F)F)N(CCN(C)C)C(=O)C2OC(C)=O)cc1 (stereo unspecified)

[1.75, 3.1, 1.85, 4.9]

====

Exercise: for every item that follows, state its recorded logP.
Where a SMILES comes first, the peptide text is derived from it.
Give bare numbers.

| molecule | logP |
| --- | --- |
| C[C@@H]1C[C@H]2[C@@H]3CCC4=CC(=O)C=C[C@]4(C)[C@@]3(Cl)[C@@H](O)C[C@]2(C)[C@@]1(OC(=O)c1ccco1)C(=O)CCl | 3.9 |

Here are 5 molecules. What values of logP were reported for them?
1. CCC(C)C(NC(=O)C(N)CC(C)C)C(=O)O (stereo not drawn) (H-Leu-Ile-OH; configuration not given here)
2. CNC(C)Cc1ccc2c(c1)OCO2 (stereo not given)
3. Cc1ccccc1Nc1ccncc1S(=O)(=O)NC(=O)NC1CCCCC1
4. COc1ccc2cc(C(C)C(=O)OCCOC(C)=O)ccc2c1 (stereo not given)
5. CC(C)CC(N)C(=O)NC(C(=O)O)C(C)C (stereo not drawn) (H-Leu-Val-OH; configuration not given here)

1: -1.64; 2: 2.15; 3: 4.35; 4: 3.5; 5: -2.05

Kindly give each listed record's logP.
1. OCCCNc1ncnc2c1ncn2C1OC(CO)C(O)C1O (stereo not given)
2. Cc1oc2c(C)cc3c(C)cc(=O)[nH]c3c2c1C
3. CC1NCCc2c1[nH]c1ccc([N+](=O)[O-])cc21 (stereo not given)
4. CC=C(C)C(=O)OCC1CCCC2(C)CCC(C(C)(C)O)CC12 (stereo not given)

[-0.86, 3.5, 2.07, 5.27]

The reported measurements were obtained from the OPERA property sets (Mansouri et al. 2018).
